Each entry below lists one item and its recorded IC50 value.
- assay_system: beta-catenin/TCF4 engagement (Homo sapiens, UniProt P35222)
- Construct: expressed in transfected cells; host or cells: HEK293
- Sequence (P35222 whole entry): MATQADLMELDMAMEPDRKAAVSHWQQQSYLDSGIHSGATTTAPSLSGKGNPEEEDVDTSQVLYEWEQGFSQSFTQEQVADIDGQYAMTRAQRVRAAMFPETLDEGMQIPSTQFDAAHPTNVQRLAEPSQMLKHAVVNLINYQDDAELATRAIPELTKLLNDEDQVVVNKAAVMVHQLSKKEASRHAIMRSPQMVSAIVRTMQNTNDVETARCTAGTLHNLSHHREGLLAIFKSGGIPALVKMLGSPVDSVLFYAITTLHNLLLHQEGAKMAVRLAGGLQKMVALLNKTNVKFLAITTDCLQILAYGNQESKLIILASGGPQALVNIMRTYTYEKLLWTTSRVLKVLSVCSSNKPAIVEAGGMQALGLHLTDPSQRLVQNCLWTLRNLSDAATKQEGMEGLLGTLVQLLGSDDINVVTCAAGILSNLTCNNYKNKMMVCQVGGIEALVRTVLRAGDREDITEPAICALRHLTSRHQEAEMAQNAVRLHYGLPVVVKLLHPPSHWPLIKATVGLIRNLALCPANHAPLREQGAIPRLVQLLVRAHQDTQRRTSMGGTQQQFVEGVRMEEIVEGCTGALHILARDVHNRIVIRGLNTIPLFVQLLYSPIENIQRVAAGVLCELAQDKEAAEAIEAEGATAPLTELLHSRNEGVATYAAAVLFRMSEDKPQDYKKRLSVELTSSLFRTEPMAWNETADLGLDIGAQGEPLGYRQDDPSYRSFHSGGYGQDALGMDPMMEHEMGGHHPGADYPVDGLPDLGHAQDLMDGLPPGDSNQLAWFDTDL
- experiment_notes: Nano-BRET target engagement assay (B-cat-Halo & TCF4-Luc in HEK293 cells)
- Assay type: cell-based
- run_conditions: absolute IC50; read-out: NanoBRET Abs IC50
Please give a number only; it is taken to be in µM.

Worked cases, IC50 given:
{"columns": ["compound", "unit_descriptor", "IC50"],
 "data": [
  ["CC(=O)N1CCC[C@]12CC=CCCCC1(CCCC=CCCCOC(=O)N3CC[C@@](C(=O)N[C@@H](Cc4ccccc4Cl)C(=O)N[C@@H](Cc4csc5ccccc45)C(=O)N[C@@H](CCC(N)=O)C(N)=O)(C3)NC(=O)[C@H](CC(C)C)NC(=O)[C@H](Cc3ccccc3)NC(=O)[C@H](C)NC(=O)[C@H](C)NC(=O)[C@H](Cc3ccccc3C(=O)O)NC(=O)[C@H](CC(=O)O)NC1=O)NC(=O)[C@H](CC(C)(C)C)NC(=O)[C@H](CC(=O)O)NC2=O (stereo partly shown)", "µM", 9.8],
  ["CC(=O)N1CCC[C@]12CC=CCCCC1(CCCC=CCCCOC(=O)N3CC[C@@](C(=O)N[C@@H](Cc4ccccc4Cl)C(=O)N[C@@H](Cc4csc5ccccc45)C(=O)N[C@@H](CCO)C(N)=O)(C3)NC(=O)[C@H](CCO)NC(=O)[C@H](Cc3ccccc3)NC(=O)[C@H](C)NC(=O)[C@H](C)NC(=O)[C@H](CN(CC(=O)O)CC(F)(F)F)NC(=O)[C@H](CC(=O)O)NC1=O)NC(=O)[C@H](CC(C)(C)C)NC(=O)[C@H](CC(=O)O)NC2=O (stereo partly shown)", "µM", 4]
]}

Proceed to the following item.
Form field: reported IC50 of CC(=O)N1CCC[C@]12CC=CCCCC1(CCCC=CCCCOC(=O)N3CC[C@@](C(=O)N[C@@H](Cc4ccccc4C(F)(F)F)C(=O)N[C@@H](Cc4csc5ccccc45)C(=O)N[C@@H](CCC(N)=O)C(=O)N[C@@H](CC(C)C)C(=O)NC4(C(N)=O)CCC4)(C3)NC(=O)[C@H](CC(C)C)NC(=O)[C@H](Cc3ccccc3)NC(=O)[C@H](C)NC(=O)[C@H](C)NC(=O)[C@H](Cc3cccc(C(=O)O)c3)NC(=O)[C@H](CC(=O)O)NC1=O)NC(=O)[C@H](CC(C)(C)C)NC(=O)[C@H](CC(=O)O)NC2=O (stereo partly shown)
5.7
